Reported pIC50 is given for each of the following molecules.
system: UniProt:Q99572
assay.overview: Antagonist activity at P2X7 receptor in human RPMI-8226 cells assessed as inhibition of ATP-induced Ca2+ influx by fura-2 staining based assay
Quick note: pIC50 values are minus log10 of concentrations in mol/L.

Example molecules with recorded pIC50:
// recorded pIC50 for Cc1ccc2ccn(CCCCN3CCN(C(c4ccccc4)c4ccccc4)CC3)c2c1 : 5.19

For reference, reported pIC50 for Cc1nc2ccccc2n1CCCCN1CCN(C(c2ccccc2)c2ccccc2)CC1 stands at 6.07

pIC50 measured on c1ccc(C(c2ccccc2)N2CCN(CCCCn3cnc4ccccc43)CC2)cc1 = 6.74

Continuing:
The molecule identified as Cc1cccc2c1ccn2CCCCN1CCN(C(c2ccccc2)c2ccccc2)CC1 registered its pIC50 at 5.28

The molecule listed as O=c1[nH]c2ccccc2n1CCCN1CCN(C2c3ccccc3CCc3ccccc32)CC1 shows pIC50 equal to 5.28

Lab book: pIC50 of c1ccc(C(c2ccccc2)N2CCN(CCCCn3ccc4ccncc43)CC2)cc1 noted as 6.62

Short answer for O=c1[nH]c2ccccc2n1CCCN1CCC(C(O)(c2ccccc2)c2ccccc2)CC1 : pIC50 was 5.12

Per the records, this molecule ( c1ccc(C(c2ccccc2)N2CCN(CCCCn3ccc4cccnc43)CC2)cc1 ) has pIC50 equal to 6.74

response.value for c1ccc(C(c2ccccc2)N2CCN(CCCCn3ccc4ncccc43)CC2)cc1 (field: pIC50) = 6.49

The recorded pIC50 for N#Cc1cn(CCCCN2CCN(C(c3ccccc3)c3ccccc3)CC2)c2ccccc12 is 5.82

###

system: P2X purinoceptor 7 (Homo sapiens, UniProt Q99572)
Sequence (Q99572 whole entry): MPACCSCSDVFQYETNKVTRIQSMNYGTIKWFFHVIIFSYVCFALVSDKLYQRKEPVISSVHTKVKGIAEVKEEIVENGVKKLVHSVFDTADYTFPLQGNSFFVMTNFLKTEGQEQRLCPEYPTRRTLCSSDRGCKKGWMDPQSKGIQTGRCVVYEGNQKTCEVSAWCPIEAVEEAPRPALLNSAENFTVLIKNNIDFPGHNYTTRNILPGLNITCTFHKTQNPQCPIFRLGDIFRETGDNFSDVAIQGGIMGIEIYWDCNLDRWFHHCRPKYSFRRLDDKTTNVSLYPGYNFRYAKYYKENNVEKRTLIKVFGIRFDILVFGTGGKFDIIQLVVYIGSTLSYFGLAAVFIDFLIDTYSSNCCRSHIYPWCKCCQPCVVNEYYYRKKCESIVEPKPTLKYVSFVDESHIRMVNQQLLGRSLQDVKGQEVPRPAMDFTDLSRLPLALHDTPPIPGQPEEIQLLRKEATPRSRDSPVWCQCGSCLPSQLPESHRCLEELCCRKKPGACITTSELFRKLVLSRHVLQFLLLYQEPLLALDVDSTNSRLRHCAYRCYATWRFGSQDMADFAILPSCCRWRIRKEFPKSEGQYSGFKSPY
assay.overview: Antagonist activity at P2X7 receptor in human RPMI-8226 cells assessed as inhibition of ATP-induced Ca2+ influx by fura-2 staining based assay
pIC50: −log10 of the molar value.
pIC50 below 6 gives 0.0; pIC50 at or above it gives 1.0.

Study these solved cases before continuing.
hey, is pIC50 for this one >= 6? O=c1[nH]c2ccccc2n1CCCN1CCN(S(=O)(=O)c2ccc([N+](=O)[O-])cc2)CC1
0.0

Tell me whether pIC50 is at least 6 here: O=c1[nH]c2ccccc2n1CCCCN1CCN(C(c2ccccc2)c2ccccc2)CC1
1.0

Quick check, pIC50 >= 6? O=c1[nH]c2ccccc2n1CCCCCN1CCN(C(c2ccccc2)c2ccccc2)CC1
1.0

Does the reported pIC50 for Cc1ccc(S(=O)(=O)N2CCN(CCCn3c(=O)[nH]c4ccccc43)CC2)cc1 fall at or above the 6 mark?
0.0

Assess whether reported pIC50 for Fc1ccc2c(ccn2CCCCN2CCN(C(c3ccccc3)c3ccccc3)CC2)c1 sits at 6 or higher.
1.0

Okay, next one:
pIC50 >= 6 for c1ccc(-c2nnnn2CCCCN2CCN(C(c3ccccc3)c3ccccc3)CC2)cc1 ?
0.0

###

system: P2X purinoceptor 7 (Homo sapiens, UniProt Q99572)
assay.overview: Antagonist activity at P2X7 receptor in human RPMI-8226 cells assessed as inhibition of ATP-induced Ca2+ influx by fura-2 staining based assay
Quick reference: pIC50 of the listed items.
pIC50 is a log-scale quantity: -log10 of the concentration expressed in molar.

Please review the following examples before continuing.
Per the reported P2X purinoceptor 7 (Homo sapiens, UniProt Q99572) data, O=c1[nH]c2ccccc2n1CCN1CCN(C(c2ccccc2)c2ccccc2)CC1 has pIC50 of 6.02

Tested on P2X purinoceptor 7 (Homo sapiens, UniProt Q99572), the item O=c1[nH]c2ccccc2n1CCCN1CCN(C(c2ccccc2)c2ccccc2)CC1 [OXATOMIDE] showed pIC50 equal to 6.08

GET /values?item= c1ccc(-c2nc3ccccc3n2CCCCN2CCN(C(c3ccccc3)c3ccccc3)CC2)cc1 &system= P2X purinoceptor 7 (Homo sapiens, UniProt Q99572) returns pIC50: 5.92

P2X purinoceptor 7 (Homo sapiens, UniProt Q99572) assay, compound c1ccc(C(c2ccccc2)N2CCN(CCCCn3ccc4ccccc43)CC2)cc1 , recorded pIC50 = 6.92

Entry Fc1cc2ccn(CCCCN3CCN(C(c4ccccc4)c4ccccc4)CC3)c2cc1F , P2X purinoceptor 7 (Homo sapiens, UniProt Q99572) data, pIC50 value: 6.89

Per the reported P2X purinoceptor 7 (Homo sapiens, UniProt Q99572) data, Cc1nccn1CCCCN1CCN(C(c2ccccc2)c2ccccc2)CC1 has pIC50 of 5.47

Entry O=C(C(c1ccccc1)c1ccccc1)N1CCN(CCCn2c(=O)[nH]c3ccccc32)CC1 ; assay system P2X purinoceptor 7 (Homo sapiens, UniProt Q99572); pIC50 recorded at 5.11

Reported pIC50 (P2X purinoceptor 7 (Homo sapiens, UniProt Q99572)) for entry Cc1cccc2ccn(CCCCN3CCN(C(c4ccccc4)c4ccccc4)CC3)c12 is 5.64

Assay P2X purinoceptor 7 (Homo sapiens, UniProt Q99572), sample O=c1[nH]c2ccccc2n1CCCN1CCC(=C(c2ccccc2)c2ccccc2)CC1 , pIC50 read: 5.62

Now for the compound whose pIC50 we want.
The reported P2X purinoceptor 7 (Homo sapiens, UniProt Q99572) pIC50 of c1ccc(C(c2ccccc2)N2CCN(CCCCn3ccc4cnccc43)CC2)cc1 is 6.34
